organism: Homo sapiens; assay: Hepatic clearance in human; conditions: in vivo
# cutoff 5 mL/min/kg applies to CL; >= gives satisfied, < gives not satisfied

1. O=C1CN=C(c2ccccn2)c2cc(Br)ccc2N1
not satisfied
2. CC1CCCC(C)N1CCCC(O)(c1ccccc1)c1ccccn1 (stereo not given)
not satisfied
3. O=P(O)(O)C(O)(Cc1cccnc1)P(=O)(O)O
not satisfied
4. CC(CC(c1ccccc1)c1ccccc1)NC(C)(C)C (stereo not given)
not satisfied
5. C=CCc1ccccc1OCC(O)CNC(C)C (stereo not given)
satisfied
6. CC[C@]1(O)C[C@@H]2CN(CCc3c([nH]c4ccccc34)[C@@](C(=O)OC)(c3cc4c(cc3OC)N(C)[C@H]3[C@@](O)(C(=O)OC)[C@H](OC(C)=O)[C@]5(CC)C=CCN6CC[C@]43[C@@H]65)C2)C1
not satisfied
7. CCN(CC)CCCC(C)Nc1ccnc2cc(Cl)ccc12 (stereo not given)
not satisfied
8. CNS(=O)(=O)Cc1ccc2[nH]cc(CCN(C)C)c2c1
satisfied
9. Cc1ccc(O)c([C@H](CCN(C(C)C)C(C)C)c2ccccc2)c1
satisfied

----------
test: clinical; settings: human, in vivo
Classify: met when CL renal is strictly less than 0.4 mL/min/kg; not met when CL renal is not.

1. NS(=O)(=O)c1cc(C2(O)NC(=O)c3ccccc32)ccc1Cl (stereo not drawn) [CHLORTHALIDONE]
not met
2. COc1ccc2c(c1)N(C[C@H](C)CN(C)C)c1ccccc1S2 [LEVOMEPROMAZINE]
not met
3. Nc1nnc(-c2cccc(Cl)c2Cl)c(N)n1 [LAMOTRIGINE]
met
4. Clc1ccc2nsnc2c1NC1=NCCN1 [TIZANIDINE]
met
5. CC(C(=O)O)c1ccc(C(=O)c2cccs2)cc1 (stereo not drawn) [SUPROFEN]
met
6. CC(CC(c1ccccc1)c1ccccc1)NC(C)(C)C (stereo not drawn) [TERODILINE]
met
7. COc1ccc(C(=O)Nc2ccccc2CCC2CCCCN2C)cc1 (stereo not drawn) [ENCAINIDE]
not met
8. CC[C@H](C)C(=O)O[C@H]1C[C@@H](C)C=C2C=C[C@H](C)[C@H](CC[C@@H]3C[C@@H](O)CC(=O)O3)[C@H]21 [LOVASTATIN]
not met
9. CN(C(=O)c1c(O)c2ccccc2n(C)c1=O)c1ccccc1 [ROQUINIMEX]
met
10. NC(=O)CN1CC(O)CC1=O (stereo not drawn) [OXIRACETAM]
not met
11. O=C(O)c1cc(/N=N/c2ccc(S(=O)(=O)Nc3ccccn3)cc2)ccc1O [SULFASALAZINE]
met
12. CN(C)CCC=C1c2ccccc2CCc2ccccc21 [AMITRIPTYLINE]
met
13. NC(=O)NO [HYDROXYUREA]
not met
14. C[C@@H]1C(=O)O[C@H]2[C@H](O)[C@@]34[C@H]5C[C@@H](C(C)(C)C)[C@]36[C@@H](OC(=O)[C@@H]6O)O[C@@]4(C(=O)O5)[C@@]12O [GINKOLIDE B]
not met
15. CCC1(c2ccccc2)C(=O)NC(=O)NC1=O [PHENOBARBITAL]
met
16. C[C@@H]1C(=O)O[C@H]2C[C@@]34[C@H]5C[C@@H](C(C)(C)C)[C@]36[C@@H](OC(=O)[C@@H]6O)O[C@@]4(C(=O)O5)[C@]21O [GINKGOLIDE A]
not met
17. Nc1ccn([C@H]2CC[C@@H](CO)O2)c(=O)n1 [ZALCITABINE]
not met
18. Cc1ccnc2c1NC(=O)c1cccnc1N2C1CC1 [NEVIRAPINE]
met
19. CCOc1ccccc1OC(c1ccccc1)C1CNCCO1 (stereo not drawn) [REBOXETINE]
met
20. CC(C)c1nc(CN(C)C(=O)N[C@H](C(=O)N[C@@H](Cc2ccccc2)C[C@H](O)[C@H](Cc2ccccc2)NC(=O)OCc2cncs2)C(C)C)cs1 [RITONAVIR]
met

----------
species: Homo sapiens; assay: Hepatic clearance in human; settings: in vivo
measure: CL (mL/min/kg)

1) O=C1CN=C(c2ccccc2)c2cc([N+](=O)[O-])ccc2N1 [NITRAZEPAM]
0.9
2) CN1Cc2c(N)cccc2C(c2ccccc2)C1 (stereo not drawn) [NOMIFENSINE]
9.5
3) Cc1ccsc1C(=CCCN1CCC[C@@H](C(=O)O)C1)c1sccc1C [TIAGABINE]
1.6

----------
species on record: Homo sapiens; assay: Hepatic clearance in human; settings: in vivo
measure: CL (mL/min/kg)

1. CCCCc1nc(Cl)c(CO)n1Cc1ccc(-c2ccccc2-c2nn[nH]n2)cc1 [LOSARTAN]
7.3
2. COCCOC(=O)C1=C(C)NC(C)=C(C(=O)OC(C)C)C1c1cccc([N+](=O)[O-])c1 (stereo not drawn) [NIMODIPINE]
15
3. C[C@@H]1O[C@@H]1P(=O)(O)O [FOSFOMYCIN]
0.02

----------
test: clinical; conditions: human, in vivo
measure: CL renal (mL/min/kg)

1. CCN1CCC[C@H]1CNC(=O)c1c(OC)ccc(Br)c1OC [REMOXIPRIDE]
0.4
2. C=CC1=C(C(=O)O)N2C(=O)[C@@H](NC(=O)/C(=N\OCC(=O)O)c3csc(N)n3)[C@H]2SC1
0.4
3. CCCCCN(CCCOC)C(=O)[C@@H](CCC(=O)O)NC(=O)c1ccc(Cl)c(Cl)c1 [DEXLOXIGLUMIDE]
0.4
